Origin of measurements: PubChem BioAssay

biological target: Voltage-gated potassium channel subunit beta-2 (Rattus norvegicus) (UniProt P62483); assay: inhibitors of rat Kvbeta2 reductase activity – biochemical, NADPH fluorescence, primary screen (AID 622); settings: recombinant KvBeta, 4-cyanobenzaldehyde reduction, at 10 µM, active compounds read high;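 note: slope of raw intensity against log time taken from 70 to 1610 s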
Sequence (P62483 whole entry, looked up): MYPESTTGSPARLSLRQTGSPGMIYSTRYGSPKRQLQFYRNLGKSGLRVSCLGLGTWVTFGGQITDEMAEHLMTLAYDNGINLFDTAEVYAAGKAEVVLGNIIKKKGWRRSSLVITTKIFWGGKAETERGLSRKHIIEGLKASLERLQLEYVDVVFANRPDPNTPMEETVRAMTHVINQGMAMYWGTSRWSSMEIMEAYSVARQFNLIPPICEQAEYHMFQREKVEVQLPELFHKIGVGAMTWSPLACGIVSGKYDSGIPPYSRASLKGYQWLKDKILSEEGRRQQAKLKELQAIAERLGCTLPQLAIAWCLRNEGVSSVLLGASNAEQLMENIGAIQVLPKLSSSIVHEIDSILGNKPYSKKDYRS
Range-based classes on measured fluorescence slope: bottom end: < -0.5; midrange: ≥ -0.5 and < -0.4; top end: ≥ -0.4

// query Which category does the recorded fluorescence slope put COc1ccc(/C=N/n2cnnc2SCc2ccc(OC)cc2)cc1 in?
// result top end

// query Which category does the recorded fluorescence slope put CC(C)c1ccc(CNc2ccc(N3CCOCC3)cc2)cc1 in?
// result top end

// query Which category does the recorded fluorescence slope put Cc1ccc(S(=O)(=O)C2(C(=O)Nc3cccnc3)CC2)cc1 in?
// result bottom end

// query Which category does the recorded fluorescence slope put C=CCn1c(=O)[nH]c2cc(C(=O)N3CCN(c4ccc(C(C)=O)cc4)CC3)ccc2c1=O in?
// result midrange

// query Which category does the recorded fluorescence slope put Fc1cccc(-c2cc3nc4c(c(N5CCN(c6cnccn6)CC5)n3n2)CCCC4)c1 in?
// result bottom end

// query Which category does the recorded fluorescence slope put O=C1CCCc2c1nn(-c1ccccc1)[n+]2[O-] in?
// result midrange

// query Which category does the recorded fluorescence slope put O=C(NC1CCCCC1)N(Cc1ccc(F)cc1)Cc1nc2ccccc2c(=O)[nH]1 in?
// result top end

// query Which category does the recorded fluorescence slope put CCC(C(=O)NC(C)CCc1ccco1)n1nc(C)n2c(cc3occc32)c1=O (stereo unspecified) in?
// result midrange

// query Which category does the recorded fluorescence slope put Cc1nc2ccccc2nc1OCC(=O)Nc1cc(C(F)(F)F)ccc1N1CCOCC1 in?
// result midrange

// query Which category does the recorded fluorescence slope put CC(=O)NCc1cccc(CNC(C)=O)n1 in?
// result midrange
